Parameter Emax: see the listing below.
# tested.target: delta receptors, mouse brain (Mus musculus, UniProt P32300)
# Construct: from tissue; host or cells: mouse brain homogenate
# Sequence (P32300 whole entry): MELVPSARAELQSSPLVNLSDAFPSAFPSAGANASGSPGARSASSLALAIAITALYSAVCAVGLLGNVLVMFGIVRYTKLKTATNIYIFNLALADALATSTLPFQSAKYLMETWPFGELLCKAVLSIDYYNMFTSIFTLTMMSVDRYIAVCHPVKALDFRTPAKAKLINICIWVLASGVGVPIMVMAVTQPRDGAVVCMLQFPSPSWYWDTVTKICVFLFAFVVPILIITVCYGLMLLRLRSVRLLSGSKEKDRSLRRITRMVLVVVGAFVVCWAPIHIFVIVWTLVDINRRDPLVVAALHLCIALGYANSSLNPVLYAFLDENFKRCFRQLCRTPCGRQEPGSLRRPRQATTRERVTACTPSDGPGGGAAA
# experiment.description: GTP[γ]35S binding functional assay, homogenised mouse brain membranes
# Assay type: biochemical
Entry rule: numbers only, all in %.

compound	tested.target	Emax / %
CCN(CC)C(=O)c1ccc(C(=C2CCN(Cc3cccs3)CC2)c2cccc3cccnc23)cc1 [Example 4]	delta receptors, mouse brain (Mus musculus, UniProt P32300)	140
CCN(CC)C(=O)c1ccc(C(=C2CCN(Cc3ccoc3)CC2)c2cccc3cccnc23)cc1 [Example 5]	delta receptors, mouse brain (Mus musculus, UniProt P32300)	147
CCN(CC)C(=O)c1ccc(C(=C2CCN(Cc3ncc[nH]3)CC2)c2cccc3cccnc23)cc1 [Example 8]	delta receptors, mouse brain (Mus musculus, UniProt P32300)	138
CCN(CC)C(=O)c1ccc(C(=C2CCN(Cc3c[nH]cn3)CC2)c2cccc3cccnc23)cc1 [Example 9]	delta receptors, mouse brain (Mus musculus, UniProt P32300)	123
CCN(CC)C(=O)c1ccc(C(=C2CCN(Cc3ccco3)CC2)c2cccc3cccnc23)cc1 [Example 3]	delta receptors, mouse brain (Mus musculus, UniProt P32300)	146

Let us move to another entry and its Emax.
Incoming: I would be grateful if you could share the reported Emax for CCN(CC)C(=O)c1ccc(C(=C2CCN(Cc3ccccn3)CC2)c2cccc3cccnc23)cc1 [Example 7] .
Outgoing: 124
